readout-type: melting point

Cc1ccc(NC(=O)c2ccsc2)cc1-c1nc(N2CCC(N)CC2)nc2c1CNC(=O)N2c1c(F)cccc1F : 250 to 261 °C (dec.)

[Q] Can you look up the measured melting point of `Cc1ccc(C(=O)NCc2ccccc2)cc1-c1nc(N(C)CCCN(C)C)nc2c1CNC(=O)N2c1c(F)cccc1F` for me?
[A] 124 to 127 °C

[Q] Another: `Cc1ccc(C(=O)N(C)C)cc1-c1nc(NCCN(C)C)nc2c1CNC(=O)N2c1c(F)cccc1F`
[A] 138 to 142 °C

[Q] Also check `CCCCN(CCCC)CCCNc1nc(-c2cc(C(=O)NC)ccc2C)c2c(n1)N(c1c(F)cccc1F)C(=O)NC2`
[A] 112 to 115 °C

[Q] What about `CNC(=O)c1ccc(C)c(-c2nc(N(C)CCCN(C)C)nc3c2CNC(=O)N3c2c(F)cccc2F)c1` ?
[A] 163 to 165 °C

[Q] Okay, and `Cc1ccc(C(=O)N(C)C)cc1-c1nc(NC2CCN(C)CC2)nc2c1CNC(=O)N2c1c(F)cccc1F` ?
[A] 163 to 165 °C

[Q] Let us now turn to `CCN(CC)C(=O)c1ccc(C)c(-c2nc(N(C)CCCN(C)C)nc3c2CNC(=O)N3c2c(F)cccc2F)c1`
[A] 106 to 108 °C

[Q] Try `Cc1ccc(C(=O)NCc2ccccc2)cc1-c1nc(N2CCN(C)CC2)nc2c1CNC(=O)N2c1c(F)cccc1F` next.
[A] 164 to 168 °C

Hello, the source for this data is patent US20090239846A1, in case you need it.
